- Test system: CCRF-CEM leukemia
- Procedure summary: NCI tumour cell line growth inhibition, 48 h
Recorded endpoint: TGI

[in] Given O=c1[nH]c(=S)[nH]cc1CN1CCOCC1 , state its recorded TGI.
[out] > 100 µM

[in] Given O=C1C2C3C4C1C1C2[C@H](OCc2ccccc2)C3C1[C@H]4OCc1ccccc1 (stereo partly specified) , state its recorded TGI.
[out] > 100 µM

[in] Given COc1cc2c(cc1OS(C)(=O)=O)N=C[C@@H]1CCCN1C2=O , state its recorded TGI.
[out] > 100 µM

[in] Given COC(=O)C(=O)C(C#N)c1nc2ccccc2s1 (stereo unspecified) , state its recorded TGI.
[out] > 100 µM

[in] Given C=CCC1(O)c2ccccc2C(=O)c2c(OCC(=O)OCC)ccc(OCC(=O)OCC)c21 (stereo unspecified) , state its recorded TGI.
[out] > 100 µM

[in] Given COc1cc2nc3n(c2cc1OC)C(O)c1c(Cl)nc(SC)nc1S3 (stereo unspecified) , state its recorded TGI.
[out] 3.91 µM

[in] Given O=C1NC(=O)C(c2c[nH]c3ccccc23)=C1c1c[nH]c2ccccc12 , state its recorded TGI.
[out] > 25 µM

[in] Given COC(=O)c1cc2ccc(O)c(O)c2cn1 , state its recorded TGI.
[out] > 100 µM

[in] Given Clc1ccc(/C=C/c2nc(-c3ccccc3)cn3c2nc2ccccc23)cc1Cl , state its recorded TGI.
[out] 48 µM

[in] Given CNC(=O)Oc1cc(C(C)C)ccc1Sc1ccc(C(C)C)cc1OC(=O)NC , state its recorded TGI.
[out] 46.3 µM

[in] Given COc1ccc(-c2nc3sc(-c4cc(OC)c(OC)c(OC)c4)nn3c2/C=C2/C(=O)Nc3ccc(F)cc32)cc1 , state its recorded TGI.
[out] > 100 µM

----------
- System: U251 CNS
- Procedure summary: NCI tumour cell line growth inhibition, 48 h
For each record, write down the corresponding TGI.

[in] Given CCN(CC)C(=O)CCn1ccc(=O)[nH]c1=O , state its recorded TGI.
[out] > 100 µM

[in] Given CCOc1ccc(/C=C2\N=C(c3ccccc3)OC2=O)cc1 , state its recorded TGI.
[out] > 100 µM

[in] Given CN1CCN(Cn2nc(COc3ccccc3Cl)n(/N=C/c3ccc(-c4ccc(Cl)cc4Cl)o3)c2=S)CC1 , state its recorded TGI.
[out] 34.6 µM

[in] Given O=C(/C=C/c1ccccc1)NC1C=Nc2ccc([N+](=O)[O-])cc2NC1=O (stereo not drawn) , state its recorded TGI.
[out] > 100 µM

[in] Given O=C(O)c1ccccc1CN1CCCC(C(=O)O)C1 (stereo not drawn) , state its recorded TGI.
[out] > 100 µM

[in] Given CC(C)=CCC[C@@H](C)[C@H]1CC[C@@]2(C)[C@@H]3CC[C@H]4C(C)(C)[C@@H](O)CC[C@@]45C[C@@]35CC[C@]12C , state its recorded TGI.
[out] 31.1 µM

[in] Given Nc1ccccc1N , state its recorded TGI.
[out] > 100 µM

[in] Given Cc1cn([C@@H]2O[C@H](CO[Si](C)(C)C(C)(C)C)[C@]3(O[C@H]3C(=O)NO)[C@H]2O[Si](C)(C)C(C)(C)C)c(=O)[nH]c1=O , state its recorded TGI.
[out] 3.07 µM
